test system: Nucleic Acid; assay: Compound was evaluated for the binding parameter by determining rate constant; assay type: nucleic-acid assay; conditions: Bos taurus
Returns YES if the recorded Rate constant is greater than or equal to 0.03 min⁻¹, and NO otherwise.

# smiles_entry, class_assignment
records = [
    ("Cc1cc2ccc(=O)oc2c2c(C)coc12", "YES"),
    ("Cc1cc(=O)oc2c1cc(C)c1occ(C)c12", "YES"),
    ("COc1c2occc2cc2ccc(=O)oc12", "YES"),
    ("Cc1cc2c(o1)c(C)c(C)c1ccc(=O)oc12", "NO"),
    ("Cc1cc2c(o1)c(C)cc1c(C)cc(=O)oc12", "YES"),
    ("Cc1cc(=O)oc2c1cc(C)c1occc12", "YES"),
    ("Cc1cc2ccc(=O)oc2c2ccoc12", "YES"),
    ("O=c1ccc2ccc3occc3c2o1", "NO"),
]

----------
test system: Nucleic Acid; assay: Compound was evaluated for the frequency of the binding site that is the number of molecules bound to every nucleotide (1/n); format: nucleic-acid assay; settings: Bos taurus

# molecule, target_or_system, Activity
measured = [
    ("Cc1cc2c(o1)c(C)cc1ccc(=O)oc12", "Nucleic Acid", 0.078),
    ("Cc1cc2ccc(=O)oc2c2c(C)coc12", "Nucleic Acid", 0.061),
    ("COc1c2occc2cc2ccc(=O)oc12 [METHOXSALEN]", "Nucleic Acid", 0.128),
    ("Cc1cc(=O)oc2c1cc(C)c1occc12", "Nucleic Acid", 0.063),
    ("Cc1cc(=O)oc2c1cc(C)c1occ(C)c12", "Nucleic Acid", 0.091),
    ("Cc1cc2c(o1)c(C)cc1c(C)cc(=O)oc12", "Nucleic Acid", 0.045),
    ("Cc1cc2c(o1)c(C)c(C)c1ccc(=O)oc12", "Nucleic Acid", 0.07),
    ("O=c1ccc2ccc3occc3c2o1 [ANGELICIN]", "Nucleic Acid", 0.063),
]

----------
Reported Activity is given for each of the following molecules.
test system: Nucleic Acid; assay: Compound was evaluated for the binding parameter by determining the number of nucleotides occluded by a bound angelicin (n); format: nucleic-acid assay; details: Bos taurus
parameter: Activity

# smiles_entry, target_or_system, parameter, assay_result
data = [
    ("Cc1cc2ccc(=O)oc2c2ccoc12", "Nucleic Acid", "Activity", 20.8),
    ("Cc1cc(=O)oc2c1cc(C)c1occ(C)c12", "Nucleic Acid", "Activity", 11),
    ("Cc1cc(=O)oc2c1cc(C)c1occc12", "Nucleic Acid", "Activity", 15.9),
    ("Cc1cc2c(o1)c(C)c(C)c1ccc(=O)oc12", "Nucleic Acid", "Activity", 14.3),
    ("Cc1cc2ccc(=O)oc2c2c(C)coc12", "Nucleic Acid", "Activity", 16.4),
    ("Cc1cc2c(o1)c(C)cc1ccc(=O)oc12", "Nucleic Acid", "Activity", 12.8),
    ("Cc1cc2c(o1)c(C)cc1c(C)cc(=O)oc12", "Nucleic Acid", "Activity", 22.2),
    ("O=c1ccc2ccc3occc3c2o1", "Nucleic Acid", "Activity", 15.9),
    ("COc1c2occc2cc2ccc(=O)oc12", "Nucleic Acid", "Activity", 7.81),
]

----------
species on record: Mus musculus; assay: Compound was evaluated for 50% inhibition of DNA synthesis in Ehrlich ascites tumor cells by irradiation (365 nM) at 1.9 x 10e -5M incubated with [3H]thymidine at 37 degree C (p 0.05); format: functional

# smiles_entry, ID50 [quanta]
measured = [
    ("O=c1ccc2ccc3occc3c2o1", "2.5e+19"),
    ("COc1c2occc2cc2ccc(=O)oc12", "1.38e+19"),
    ("Cc1cc2ccc(=O)oc2c2c(C)coc12", "2.2e+18"),
    ("Cc1cc2ccc(=O)oc2c2ccoc12", "2.63e+19"),
]
